These entries and their values trace back to patent US20250066503A1.

Target Entity: T1, soluble human CD3 epsilon chain (human, UniProt P07766 23-126)
T1 construct: also called CD3ε
T1 sequence (P07766 23-126 limits assumed): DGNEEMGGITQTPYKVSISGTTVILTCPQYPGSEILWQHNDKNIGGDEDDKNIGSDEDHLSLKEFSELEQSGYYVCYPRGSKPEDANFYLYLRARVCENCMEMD
Test: SPR
pKd for assorted binders
Please treat pKd as minus the base-10 logarithm of the molar concentration.

Field: example entries. Status: answers known.
TR01H061-E22Hh/none-Hi-Kn010G3/L0226-k0 (antibody, V domains shown, one-arm) VH: QVQLVESGGGLVQPGRSLRLSCAASGFTFSNAWMHWVRQAPGKGLEWVAQIKDKSQNYATYYAESVKGRFTISRADSKNSIYLQMNSLKTEDTAVYYCRYVHYAASYGVDIWGQGTTVTVSS VL: DIVMTQSPLSLPVTPGEPASISCRSSQSPVHSNRNTYIHWYQQKPGQAPRLLIYKVSNRFSGVPDRFSGSGSGTDFTLKISRVEAEDVGVYYCIQGTQVPYTFGQGTKLEIK :: 7.33
TR01H082-E22Hh/none-Hi-Kn010G3/L0258-k0 (antibody, V domains shown, one-arm) VH: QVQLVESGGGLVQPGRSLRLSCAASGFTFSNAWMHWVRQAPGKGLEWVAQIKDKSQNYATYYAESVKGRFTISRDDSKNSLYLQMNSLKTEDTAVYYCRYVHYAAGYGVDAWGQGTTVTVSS VL: DIVMTQSPLSLPVTPGEPASISCRSSQPPVHSNRNTYLHWYQQKPGQAPRLLIYKVSNRFSGVPDRFSGSGSGTDFTLKISRVEAEDVGVYYCTQGTQVPYTFGQGTKLEIK :: 7.33
TR01H114-E2702GsKsc/none-Hi-E2704sE/L0011-k0 (antibody, V domains shown, one-arm) VH: QVQLVESGGGVVQPGGSLRLSCAASGFTFSNAWMHWVRQAPGKGLEWVAQIKDKSQNYASYYAESVKGRFTISRADSKNSIYLQMNSLKTEDTAVYYCRYVHYAAGYGVDIWGQGTTVTVSS VL: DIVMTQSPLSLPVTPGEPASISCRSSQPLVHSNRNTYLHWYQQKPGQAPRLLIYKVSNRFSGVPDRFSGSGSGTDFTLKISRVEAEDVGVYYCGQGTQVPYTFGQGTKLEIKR :: 8.37

QUERY: Which pKd value is on record for hCE115HA-G1dh//-Hi-Kn010G3/L0000-k0 (antibody, V domains shown, one-arm) VH: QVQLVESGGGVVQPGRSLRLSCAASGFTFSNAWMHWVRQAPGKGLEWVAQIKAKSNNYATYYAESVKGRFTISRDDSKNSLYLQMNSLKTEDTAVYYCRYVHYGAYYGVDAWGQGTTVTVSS VL: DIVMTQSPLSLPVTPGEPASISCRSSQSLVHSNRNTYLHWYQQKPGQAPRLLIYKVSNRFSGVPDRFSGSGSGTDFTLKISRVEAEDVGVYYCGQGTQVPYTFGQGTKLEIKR ?
RESULT: 7.19

QUERY: Which pKd value is on record for TR01H082-E22Hh/none-Hi-Kn010G3/L0000-k0 (antibody, V domains shown, one-arm) VH: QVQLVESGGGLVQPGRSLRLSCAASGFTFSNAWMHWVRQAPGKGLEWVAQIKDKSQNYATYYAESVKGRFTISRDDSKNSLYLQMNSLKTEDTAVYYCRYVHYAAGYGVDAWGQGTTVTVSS VL: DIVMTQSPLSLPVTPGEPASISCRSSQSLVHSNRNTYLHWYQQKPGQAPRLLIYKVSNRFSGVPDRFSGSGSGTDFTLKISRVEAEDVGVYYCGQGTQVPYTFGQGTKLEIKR ?
RESULT: 7.13
